target: butyrylcholinesterase (BuChE) (Homo sapiens); assay: biochemical; settings: Ellman method, pH 7.7, 37 °C, triplicate, ± SEM; read-out: BuChE IC50
Sequence (P06276 29-602): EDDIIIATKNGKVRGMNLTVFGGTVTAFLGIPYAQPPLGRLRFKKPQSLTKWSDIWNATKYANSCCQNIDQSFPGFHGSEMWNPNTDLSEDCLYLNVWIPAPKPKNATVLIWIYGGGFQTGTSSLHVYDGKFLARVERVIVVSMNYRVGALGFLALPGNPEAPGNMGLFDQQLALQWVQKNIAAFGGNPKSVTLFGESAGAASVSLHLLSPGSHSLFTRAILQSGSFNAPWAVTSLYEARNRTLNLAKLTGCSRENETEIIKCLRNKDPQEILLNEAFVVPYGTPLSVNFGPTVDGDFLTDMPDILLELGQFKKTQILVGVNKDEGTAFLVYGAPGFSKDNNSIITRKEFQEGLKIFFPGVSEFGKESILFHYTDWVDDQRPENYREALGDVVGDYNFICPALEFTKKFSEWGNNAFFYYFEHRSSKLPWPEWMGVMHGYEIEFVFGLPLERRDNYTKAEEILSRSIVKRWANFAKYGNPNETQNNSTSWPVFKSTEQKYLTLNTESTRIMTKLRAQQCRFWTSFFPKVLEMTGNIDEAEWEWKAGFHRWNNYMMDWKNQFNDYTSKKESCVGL
Decision: IC50 beneath 700 nM gives 1 (yes); IC50 meeting or exceeding 700 nM gives 0 (no).

>  <Smiles record>
O=[N+]([O-])c1ccc(S(=O)(=O)NNc2nc(-c3ccc(-c4ccccc4)cc3)cs2)cc1

>  <Qualitative label>
0 (no)

$$$$
>  <Smiles record>
O=S(=O)(NNc1nc(-c2ccc(Cl)cc2)cs1)c1ccc(Cl)cc1

>  <Qualitative label>
0 (no)

$$$$
>  <Smiles record>
O=[N+]([O-])c1cccc(-c2csc(NNS(=O)(=O)c3cc(Cl)cc(Cl)c3O)n2)c1

>  <Qualitative label>
1 (yes)

$$$$
>  <Smiles record>
O=[N+]([O-])c1cccc(S(=O)(=O)NNc2nc(-c3ccc(Cl)c(Cl)c3)cs2)c1

>  <Qualitative label>
0 (no)

$$$$

====

target: acetylcholinesterase (AChE) (Homo sapiens); assay: biochemical; settings: Ellman method, pH 7.7, 37 °C, triplicate, ± SEM; read-out: AchE IC50
Sequence (P22303 32-614, species assumed): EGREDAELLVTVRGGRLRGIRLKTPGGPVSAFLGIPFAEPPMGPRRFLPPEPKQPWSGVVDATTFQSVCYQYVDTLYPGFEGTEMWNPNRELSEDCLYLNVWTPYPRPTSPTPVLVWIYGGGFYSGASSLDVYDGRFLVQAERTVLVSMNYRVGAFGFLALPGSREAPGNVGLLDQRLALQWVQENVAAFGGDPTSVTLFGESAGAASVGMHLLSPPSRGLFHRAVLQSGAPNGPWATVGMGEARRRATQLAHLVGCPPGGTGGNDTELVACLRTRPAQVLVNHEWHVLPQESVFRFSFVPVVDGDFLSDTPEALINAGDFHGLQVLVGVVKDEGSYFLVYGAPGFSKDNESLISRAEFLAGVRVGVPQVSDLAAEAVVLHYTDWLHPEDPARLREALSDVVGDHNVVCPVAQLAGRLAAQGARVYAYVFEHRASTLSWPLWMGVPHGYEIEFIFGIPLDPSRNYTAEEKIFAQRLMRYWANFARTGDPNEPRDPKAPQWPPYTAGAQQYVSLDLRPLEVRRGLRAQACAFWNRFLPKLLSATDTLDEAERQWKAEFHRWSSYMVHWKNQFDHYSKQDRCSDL
pIC50: −log10 of the molar value.
Parameter pIC50: see the listing below.

>  <Smiles record>
Cc1ccc([N+](=O)[O-])cc1S(=O)(=O)NNc1nc(-c2ccc(Cl)cc2)cs1

>  <pIC50>
5.51

$$$$
>  <Smiles record>
O=[N+]([O-])c1ccc(S(=O)(=O)NNc2nc(-c3ccccc3)cs2)cc1

>  <pIC50>
4.94

$$$$
>  <Smiles record>
Cc1ccc([N+](=O)[O-])cc1S(=O)(=O)NNc1nc(-c2ccc(-c3ccccc3)cc2)cs1

>  <pIC50>
6.52

$$$$
>  <Smiles record>
Cc1ccc([N+](=O)[O-])cc1S(=O)(=O)NNc1nc(-c2ccc(Cl)c(Cl)c2)cs1

>  <pIC50>
6.70

$$$$
>  <Smiles record>
O=S(=O)(NNc1nc(-c2ccc(Cl)c(Cl)c2)cs1)c1ccc(Cl)cc1

>  <pIC50>
6.40

$$$$
>  <Smiles record>
O=S(=O)(NNc1nc(-c2ccc(Cl)cc2)cs1)c1cc(Cl)cc(Cl)c1O

>  <pIC50>
6.40

$$$$
>  <Smiles record>
O=[N+]([O-])c1cccc(-c2csc(NNS(=O)(=O)c3cc(Cl)cc(Cl)c3O)n2)c1

>  <pIC50>
7.00

$$$$
>  <Smiles record>
O=[N+]([O-])c1cccc(-c2csc(NNS(=O)(=O)c3ccc(Cl)cc3)n2)c1

>  <pIC50>
5.72

$$$$
>  <Smiles record>
O=[N+]([O-])c1ccc(S(=O)(=O)NNc2nc(-c3ccc(-c4ccccc4)cc3)cs2)cc1

>  <pIC50>
5.49

$$$$
